Recorded half-life at 1 μM by entry
# testDetails: Liver microsomal metabolic stability, human liver microsomes (HLM)
# conditionSet: human, liver microsomes

COc1ncnc(C2CC2)c1-c1nc2n(n1)CCC(=O)N2[C@@H](C)c1ccc(-c2nc(C(F)(F)F)cn2C)c(F)c1 | < 25 min
COc1cccnc1-c1ccc(CN2C(=O)CCn3nc(-c4c(Cl)cnn4C(C)C)cc32)cc1Cl | < 25 min
CCn1cc(C(F)(F)F)nc1-c1ccc([C@@H](C)N2C(=O)CCn3nc(-c4c(Cl)cnn4C(C)C)nc32)cc1OC | < 25 min
COc1ncnc(C2CC2)c1-c1nc2n(n1)CCC(=O)N2[C@H](C)c1ccc(-c2nc(C(F)(F)F)cn2C2CC2)cc1 | > 25 min
COc1ncnc(C2CC2)c1-c1nc2n(n1)CCC(=O)N2[C@@H](C)c1ccc(-c2nc(C(F)(F)F)cn2C2CC2)cc1 | > 25 min
CCn1cc(C(F)(F)F)nc1-c1ccc(CN2C(=O)CCn3nc(-c4c(OC(F)F)ncnc4C4CC4)nc32)cc1F | > 25 min

Please supply the value of reported half-life at 1 μM for the item CC(C)Oc1cccnc1-c1ccc(CN2C(=O)CCn3nc(-c4c(Cl)cnn4C(C)C)nc32)cc1
< 25 min

Please supply the value of reported half-life at 1 μM for the item CCn1cc(C(F)(F)F)nc1-c1ccc(CN2C(=O)CCn3nc(-c4c(C)cnn4C(C)C)cc32)cc1
< 25 min

Please supply the value of reported half-life at 1 μM for the item CCn1cc(C(F)(F)F)nc1-c1ccc([C@@H](C)N2C(=O)CCn3nc(-c4c(OC)ncnc4C4CC4)nc32)cc1
> 25 min

Please supply the value of reported half-life at 1 μM for the item CCn1cc(C(F)(F)F)nc1-c1ccc(OC2CCCCn3nc(-c4c(Cl)cnn4C(C)C)cc32)cc1 (centres unmarked)
> 25 min

Please supply the value of reported half-life at 1 μM for the item CCn1cc(C(F)(F)F)nc1-c1ccc(Cn2c(=O)ccn3nc(-c4c(OC)ncnc4C4CC4)nc23)cc1
> 25 min

Please supply the value of reported half-life at 1 μM for the item COc1cccc(C)c1-c1cc2n(n1)CCCN2Cc1ccc(-c2nc(C(F)(F)F)cn2C)cc1
< 25 min

Please supply the value of reported half-life at 1 μM for the item COc1ncnc(C2CC2)c1-c1nc2n(n1)CCC(=O)N2C(C)c1ccc(-c2nc(C(F)(F)F)cn2C(C)C)cc1 (centres unmarked)
> 25 min

Please supply the value of reported half-life at 1 μM for the item CCn1cc(C(F)(F)F)nc1-c1ccc([C@@H](C)N2C(=O)CCn3nc(-c4c(OC)ncnc4C4CC4)nc32)cc1F
> 25 min

====

# testDetails: ADME solubility determination in PBS at pH 2.0 and pH 7.4
# Assay type: physicochemical
# conditionSet: phosphate buffered saline, 25 °C, pH 2, aqueous buffer, thermodynamic from solid, PBS pH 2.0, 25° C., read-out: Solubility at pH 2.0
measureName: solubility at 24 h

Some solved entries appear below for comparison.
CCn1cc(C(F)(F)F)nc1-c1ccc([C@@H](C)N2CCCn3nc(-c4c(Cl)cnn4C(C)C)cc32)cc1 (single isomer, unassigned) | < 10 µM
CCn1cc(C(F)(F)F)nc1-c1ccc(CN2C(=O)[C@@H](C)Cn3nc(-c4c(OC)ncnc4C4CC4)nc32)cc1F (single isomer, unassigned) | ≥ 10 µM
CCn1cc(C(F)(F)F)nc1-c1ccc(CN2C(=O)CCn3nc(-c4c(OC(F)F)ncnc4C4CC4)nc32)cc1F | < 10 µM
CCn1cc(C(F)(F)F)nc1-c1ccc(CN2C(=O)CCn3nc(-c4c(Cl)cnn4C(C)C)nc32)cc1F | < 10 µM
CCn1cc(C(F)(F)F)nc1-c1ccc(CN2C(=O)CCn3nc(-c4c(Cl)cnn4C(C)C)nc32)cn1 | < 10 µM
CCn1cc(C(F)(F)F)nc1-c1ccc(CN2C(=O)CCn3nc(-c4c(C(F)F)cnn4C(C)C)cc32)cc1F | ≥ 10 µM

Moving on to the next compound.
Please supply the value of reported solubility at 24 h for the item CCn1cc(C(F)(F)F)nc1-c1ccc(C(C)N2CCCn3nc(-c4c(OC)ncnc4C4CC4)cc32)cc1 (stereo not shown)
≥ 10 µM

Ref: patent US20230219965A1
